Assayed Target: FAAH (Rattus norvegicus, UniProt P97612)
Construct: For assay of FAAH activity in rat brain membrane (RBM) homogenates; tissue Charles River
Sequence (P97612 whole entry): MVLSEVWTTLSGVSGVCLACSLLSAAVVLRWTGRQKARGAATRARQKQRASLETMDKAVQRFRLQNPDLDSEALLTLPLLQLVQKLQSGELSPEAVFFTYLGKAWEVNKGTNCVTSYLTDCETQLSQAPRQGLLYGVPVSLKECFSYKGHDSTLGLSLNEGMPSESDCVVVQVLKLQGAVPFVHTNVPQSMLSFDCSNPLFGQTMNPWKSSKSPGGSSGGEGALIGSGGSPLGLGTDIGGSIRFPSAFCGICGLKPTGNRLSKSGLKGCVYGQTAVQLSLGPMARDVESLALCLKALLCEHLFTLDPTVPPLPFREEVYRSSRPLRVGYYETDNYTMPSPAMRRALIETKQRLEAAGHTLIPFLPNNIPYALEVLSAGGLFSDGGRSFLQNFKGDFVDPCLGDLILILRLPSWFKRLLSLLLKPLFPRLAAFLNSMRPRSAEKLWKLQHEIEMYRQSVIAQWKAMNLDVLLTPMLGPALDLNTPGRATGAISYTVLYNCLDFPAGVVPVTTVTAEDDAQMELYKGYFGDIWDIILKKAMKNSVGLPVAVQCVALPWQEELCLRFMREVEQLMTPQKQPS
Assay: FAAH inhibition, rat brain membrane homogenate assay
Measurement Context: average; FAAH extracted from rat brain homogenate; read-out: Rat Brian Extract IC50
Readout Label: pIC50
One number for each entry, as −log10 of the molar value.

Example cases with answers are listed next.
>>> reported("COc1cc(NC(=O)C(=O)c2c3c(n(Cc4ccc(Cl)cc4)c2C)CCCC3)ccn1 [Compound I-18]")
5.84
>>> reported("COc1cc(NC(=O)C(=O)c2cc(C)n(Cc3ccc(Cl)cc3)c2-c2ccccc2)ccn1 [Compound I-23]")
6.73

Would you be so kind as to report pIC50 for each listed record?
1. COc1cc(NC(=O)C(=O)c2cc(C)n(Cc3ccc(Cl)cc3Cl)c2C)ccn1 [Compound I-21]
2. Cc1c(C(=O)C(=O)Nc2cccc(Cl)c2)c2c(n1Cc1ccc(Cl)cc1)CCCC2 [Compound I-16]

9.00
8.40

Could I get pIC50 for every one of these entries?
1. COc1cc(NC(=O)C(=O)c2c(-c3ccccc3)c(C)n(Cc3ccc(Cl)cc3)c2C)ccn1 [Compound I-19]
2. COc1ccc(Cn2c(C)cc(C(=O)C(=O)Nc3ccnc(OC)c3)c2C)cc1 [Compound I-22]

8.30
5.75
